target-under-test: human GPR17 short isoform (Homo sapiens, UniProt Q13304)
Sequence (Q13304 29-367): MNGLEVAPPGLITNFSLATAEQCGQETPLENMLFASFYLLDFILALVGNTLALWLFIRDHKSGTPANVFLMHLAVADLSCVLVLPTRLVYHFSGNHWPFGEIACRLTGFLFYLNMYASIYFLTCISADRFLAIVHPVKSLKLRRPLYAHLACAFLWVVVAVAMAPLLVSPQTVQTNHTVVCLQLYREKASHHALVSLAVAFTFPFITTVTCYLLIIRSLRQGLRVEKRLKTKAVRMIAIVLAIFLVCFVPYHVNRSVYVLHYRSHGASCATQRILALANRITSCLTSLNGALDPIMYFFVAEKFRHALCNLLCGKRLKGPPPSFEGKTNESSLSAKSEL
assay-comment: GPR17 cAMP assay (antagonist mode, TR-FRET cAMP detection)
condition-notes: CHO-K1 cells stably expressing human GPR17 short isoform; with EC80 concentration of agonist MDL29,951, IBMX 0.5mM, forskolin 15µM; normalized to reference antagonist; read-out: hGPR17 cAMP IC50
Measured log10(IC50) accompanies every entry in the list below.
On a log10 scale: recorded IC50, unit nM.

smiles-representation	log10(IC50)
COc1nc(NS(=O)(=O)c2c[nH]c3c(-n4nccn4)c(Cl)ccc23)nc(OC)c1C	1.28
COc1nc(NS(=O)(=O)c2c[nH]c3c(-n4ccc(C)n4)cccc23)nc(OC)c1CC(F)F	1.83
COc1nc(NS(=O)(=O)c2c[nH]c3c(-n4nccn4)c(Cl)ccc23)nc(OC)c1Br	1.57

Please look at the following compound next.
log10(IC50) recorded for this compound, `COc1nc(NS(=O)(=O)c2c[nH]c3c(-n4ccc(F)n4)c(Cl)ccc23)nc(OC)c1OCC(F)F` , is 1.40

---

target-under-test: human GPR17 short isoform (Homo sapiens, UniProt Q13304)
assay-comment: GPR17 cAMP assay (antagonist mode, TR-FRET cAMP detection)
condition-notes: CHO-K1 cells stably expressing human GPR17 short isoform; with EC80 concentration of agonist MDL29,951, IBMX 0.5mM, forskolin 15µM; normalized to reference antagonist; read-out: hGPR17 cAMP IC50
reported-metric: pIC50
Schema: pIC50 number; meaning minus log10 of the concentration expressed in molar units.

compound	reported-metric	reported-result
COc1nc(NS(=O)(=O)c2c[nH]c3c(-n4nccn4)c(C(F)F)ccc23)nc(OC)c1OCCF [Example 41]	pIC50	7.19
COc1nc(NS(=O)(=O)c2c[nH]c3c(-n4nccn4)cccc23)nc(OC)c1OCCF [Example 19]	pIC50	6.50
COc1nc(NS(=O)(=O)c2c[nH]c3c(-n4cccn4)c(Br)ccc23)nc(OC)c1OC(F)F [Example 77]	pIC50	7.57

pIC50 recorded for this compound, COc1nc(NS(=O)(=O)c2c[nH]c3c(-n4cccn4)c(Cl)ccc23)nc(OC)c1OCC(F)F [Example 65] , is 7.66
